Biological target: T1, human Trop-2 (on the surface of human cell lines) (human, UniProt P09758 27-323)
T1 sequence: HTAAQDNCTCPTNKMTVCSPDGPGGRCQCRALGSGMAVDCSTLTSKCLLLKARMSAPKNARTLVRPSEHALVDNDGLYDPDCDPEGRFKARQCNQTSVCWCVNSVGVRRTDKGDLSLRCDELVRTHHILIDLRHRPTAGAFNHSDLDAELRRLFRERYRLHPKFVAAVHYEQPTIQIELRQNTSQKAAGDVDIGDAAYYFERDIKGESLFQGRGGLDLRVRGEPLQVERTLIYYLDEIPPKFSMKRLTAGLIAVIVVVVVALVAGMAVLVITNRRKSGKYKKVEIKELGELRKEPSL
Assay: cell-based or functional assay
Recorded ADCC, PBMC killing (LDH), HCC1806, Maximum killing (%), one value per entry.
MEASUREMENT_KIND: ADCC, PBMC killing (LDH), HCC1806, Maximum killing (%)

- BINDER: "ch-Ab35 (antibody, human IgG1, kappa, V domains shown, Mouse VH/VL on human IgG1 and human kappa constant regions; also called chimeric antibody of Ab35) VH: EVQLQQSGPDLVRPGASVKLSCKASGYTFTSSDINWVKQRPGQGLEWIGWIYPRDGSKKYNEKFKGKATLTVDTSSSTAYMEVHSLTSEDSAVYFCATRFATVVSNYGLDPWGQGTSVTVSS VL: AIVLTQSPAIMSASPGEKVTMTCSASSSVNYIYWYQRKPGSSPRLLIYDTSNLASGVPVRFSGSGSGTSYSLTISRMEAEDAATYYCQQWNSYPLTFGAGTKLELKR"
  QUANTITATIVE_READOUT: 38
- BINDER: "hz-Ab35-2.3 (antibody, human IgG1, kappa, V domains shown, Humanized antibody) VH: QVQLVQSGAEVKKPGASVKVSCKASGYTFTSSDINWVRQRPGQGLEWMGWIYPRDGSKKYNEKFKGRVTMTVDTSTSTVYMELSSLRSEDTAVYYCATRFATVVSNYGLDPWGQGTLVTVSS VL: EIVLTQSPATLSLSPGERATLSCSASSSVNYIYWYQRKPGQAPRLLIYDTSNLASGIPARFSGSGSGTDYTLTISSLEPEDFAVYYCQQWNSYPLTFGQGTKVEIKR"
  QUANTITATIVE_READOUT: 35.7
- BINDER: "ch-Ab2 (antibody, human IgG1, kappa, V domains shown, also called chimeric antibody of Ab2) VH: EVQLVESGPGLVAPSQSLSITCTVSGFSLTYYGIDWVRQPPGKGLEWLGVIWGSGNTKYNSALMSRLSISKDNSKSQVFLRMNSLQSDDTAIYYCARFYEGFAYWGQGTLVTVSA VL: AIVLTQSPSSMYASLGERVTITCKASQDINSYLSWFQQKPGKSPKTLIYRANRLVDGVPSRFSGSGSGQDYSLTISSLEYEDMGIYYCLQYDEFPLTFGVGTKLELKR"
  QUANTITATIVE_READOUT: 40
- BINDER: "ch-Ab21 (antibody, human IgG1, kappa, V domains shown, Mouse VH/VL on human IgG1 and human kappa constant regions; also called chimeric antibody of Ab21) VH: EVQLKQSGPGLVQPSQSLSITCTVSGFSLRNYGVHWVRQSPGKGLEWLGVIWSSGTTDYNAAFISRLSITKDNSKSQVFFKMNSLQVDDTAIYNCARDGDYDYYTMDYWGQGTSVTVSS VL: AIVLTQSPASLAVSLGQRATISCRASKSVSTSAYSYIHWYQQKPGQPPKLLIYLTSNLESGVPARFSGSGSGTDFTLNIHPVEEEDAATYYCQHSRELPYTFGGGTKLEIKR"
  QUANTITATIVE_READOUT: 40.3
- BINDER: "hz-Ab21-2.1 (antibody, human IgG1, kappa, V domains shown, Humanized antibody) VH: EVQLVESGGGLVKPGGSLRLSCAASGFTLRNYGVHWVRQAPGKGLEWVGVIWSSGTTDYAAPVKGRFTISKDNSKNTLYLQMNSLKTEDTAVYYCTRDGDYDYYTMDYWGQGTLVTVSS VL: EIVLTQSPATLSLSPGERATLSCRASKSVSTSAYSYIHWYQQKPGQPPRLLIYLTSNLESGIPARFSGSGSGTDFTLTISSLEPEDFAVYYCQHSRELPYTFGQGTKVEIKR"
  QUANTITATIVE_READOUT: 32.2
- BINDER: "hz-Ab2-1.2 (antibody, human IgG1, kappa, V domains shown, Humanized antibody) VH: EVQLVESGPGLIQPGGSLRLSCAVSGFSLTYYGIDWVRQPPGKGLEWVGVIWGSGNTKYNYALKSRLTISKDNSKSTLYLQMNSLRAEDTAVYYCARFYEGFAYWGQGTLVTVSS VL: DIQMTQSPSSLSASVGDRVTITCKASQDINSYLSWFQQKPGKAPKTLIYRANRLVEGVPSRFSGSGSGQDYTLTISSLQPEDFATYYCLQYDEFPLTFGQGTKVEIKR"
  QUANTITATIVE_READOUT: 36.6
- BINDER: "hz-Ab2-2.4 (antibody, human IgG1, kappa, V domains shown, Humanized antibody) VH: QVQLQESGPGLVKPSETLSLTCTVSGFSLTYYGIDWIRQPPGKGLEWIGVIWGSGNTKYNSALKSRVTISKDNSKSQVYLKLSSVTAADTAVYYCARFYEGFAYWGQGTLVTVSS VL: DIQMTQSPSSLSASVGDRVTITCRASQDINSYLSWFQQKPGKAPKTLIYRANRLVEGVPSRFSGSGSGQDFTLTISSLQPEDFATYYCLQYDEYPLTFGQGTKVEIKR"
  QUANTITATIVE_READOUT: 33.3
- BINDER: "hz-Ab35-2.2 (antibody, human IgG1, kappa, V domains shown, Humanized antibody) VH: QVQLVQSGAEVKKPGASVKVSCKASGYTFTSSDINWVRQRPGQGLEWMGWIYPRDGSKKYNEKFKGRVTMTVDTSTSTVYMELSSLRSEDTAVYYCARRFATVVSNYGLDPWGQGTLVTVSS VL: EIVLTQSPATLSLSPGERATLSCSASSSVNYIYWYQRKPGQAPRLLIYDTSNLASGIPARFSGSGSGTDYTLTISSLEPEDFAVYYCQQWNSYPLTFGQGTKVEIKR"
  QUANTITATIVE_READOUT: 35.9
